target: SARS-CoV-2 NSP3 Mac1 (Severe acute respiratory syndrome coronavirus 2, UniProt P0DTD1); experiment: biochemical; assay type: binding; settings: MIDAS hit compounds and analogues, 125 µM; read-out: Inhibition at top concentration of 125 µM (%)
readout kind: inhibition at 125 µM (%)
Write the value in % as a bare number.

Inquiry: # return recorded inhibition at 125 µM for input `CCn1ncc2c(C(=O)Nc3cc(Cl)ccc3OC)cc(-c3cccs3)nc21`
Reply text: 50.5

Inquiry: # return recorded inhibition at 125 µM for input `COc1ccc(-c2cc(C(=O)Nc3cccnc3)c3ccccc3n2)cc1`
Reply text: 15.9

Inquiry: # return recorded inhibition at 125 µM for input `CC(C)n1ncc2c(C(=O)N3CCNC(=O)C3)cc(-c3ccc4c(c3)OCCO4)nc21`
Reply text: 30.2

Inquiry: # return recorded inhibition at 125 µM for input `CC(=O)Nc1cccc(NC(=O)c2cc(-c3cccs3)nc3c2cnn3C(C)C)c1`
Reply text: 20.3

Inquiry: # return recorded inhibition at 125 µM for input CC(CNC(=O)c1cc(-c2cccs2)nc2c1cnn2C(C)C)N1CCCCC1 (centres unmarked)
Reply text: 60.5

----------
I'd appreciate it if you could supply NSP3 Mac1 inhibition at 50 µM (%) values for the items below.
target: SARS-CoV-2 NSP3 Mac1 (Severe acute respiratory syndrome coronavirus 2); assay: biochemical; type: binding; conditions: FDA-approved compound library primary screen, 50 µM, single shot

Inquiry: # return recorded NSP3 Mac1 inhibition at 50 µM (%) for input CCCCCCCC/C=C\CCCCCCCC(=O)O.NCCO [Ethanolamine oleate, reference compound]
Reply text: 56.1%

Inquiry: # return recorded NSP3 Mac1 inhibition at 50 µM (%) for input CC(C)(O/N=C(\C(=O)N[C@@H]1C(=O)N2C(C(=O)[O-])=C(C[n+]3ccccc3)CS[C@H]12)c1csc(N)n1)C(=O)O [Ceftazidime, reference compound]
Reply text: 108%

Inquiry: # return recorded NSP3 Mac1 inhibition at 50 µM (%) for input CO/N=C(\C(=O)N[C@@H]1C(=O)N2C(C(=O)[O-])=C(C[N+]3(C)CCCC3)CS[C@H]12)c1csc(N)n1.Cl [Cefepime hydrochloride, reference compound]
Reply text: 42.1%

Inquiry: # return recorded NSP3 Mac1 inhibition at 50 µM (%) for input O=C(O)CCCC[C@@H]1SC[C@@H]2NC(=O)N[C@@H]21 [Biotin, reference compound]
Reply text: 107%

Inquiry: # return recorded NSP3 Mac1 inhibition at 50 µM (%) for input NC(=O)c1ccc[n+]([C@@H]2O[C@H](COP(=O)([O-])OP(=O)(O)OC[C@H]3O[C@@H](n4cnc5c(N)ncnc54)[C@H](O)[C@@H]3O)[C@@H](O)[C@H]2O)c1 [Nadide, reference compound]
Reply text: 100%

----------
I'd appreciate it if you could supply inhibition at 125 µM values for the items below.
target: SARS-CoV-2 NSP3 Mac1 (Severe acute respiratory syndrome coronavirus 2, UniProt P0DTD1); assay: biochemical; type: binding; settings: MIDAS hit compounds and analogues, 125 µM; read-out: Inhibition at top concentration of 125 µM (%)
Write the value in % as a bare number.

Inquiry: # return recorded inhibition at 125 µM for input Cc1ccc(-c2cc(C(=O)N3CCOCC3)c3cnn(C(C)C)c3n2)s1 [IAL-MD0051]
Reply text: 59.8

Inquiry: # return recorded inhibition at 125 µM for input Cn1ccc2c(-c3cc(C(=O)N4CCCC4)ccn3)ccnc21 [IAL-MD0139]
Reply text: 21.7

Inquiry: # return recorded inhibition at 125 µM for input CN(C)C1CCN(C(=O)c2ccc(-c3ncnc4[nH]ccc34)cc2)C1 (stereo not shown) [IAL-MD0141]
Reply text: 81.3

Inquiry: # return recorded inhibition at 125 µM for input CCC(C)NC(=O)c1cc(-c2ccc(OC)cc2)nc2ccccc12 (stereo not shown) [IAL-MD0035]
Reply text: 6.8

The measured values listed here are drawn from paper PMC9965906.
